Test system: C. albicans 10231
assay protocol: MBC/MFC against C. albicans 10231
Assay type: cell-based
protocol conditions: Candida albicans, pH 7 phosphate, Table 3
readout name: MFC

// field: MFC; key: COCCOCCOCCOCCS(=O)(=O)CCC(C)(C)N(Cl)Cl [Compound 38-147] ; value = 2050 µg/mL

// field: MFC; key: CC(C)(CCS(=O)(=O)CC(O)CO)N(Cl)Cl (stereo not shown) [Compound 38-27] ; value = > 1020 µg/mL

// field: MFC; key: CCCCOCC[N+](C)(C)CCC(C)(C)N(Cl)Cl.[Cl-] [Compound 38-133] ; value = 1020 µg/mL

// field: MFC; key: CC(C)(CCS(=O)(=O)CCO)N(Cl)Cl [Compound 38-25] ; value = 512 µg/mL

// field: MFC; key: CC(=O)OCC(O)CS(=O)(=O)CCC(C)(C)N(Cl)Cl (stereo not shown) [Compound 38-49] ; value = > 512 µg/mL

// field: MFC; key: CO[C@H]1O[C@H](CS(=O)(=O)CCC(C)(C)N(Cl)Cl)[C@@H](O)[C@H](O)[C@H]1O [Compound 38-141] ; value = > 1020 µg/mL

// field: MFC; key: CCOCCOCCOCCS(=O)(=O)CCC(C)(C)N(Cl)Cl [Compound 38-89] ; value = 512 µg/mL

// field: MFC; key: CC(C)(CCS(=O)(=O)C(CO)C(O)CO)N(Cl)Cl (stereo not shown) [Compound 38-145] ; value = 1020 µg/mL

// field: MFC; key: CC(C)(CCS(=O)(=O)CCOCCS(=O)(=O)O)N(Cl)Cl [Compound 38-83] ; value = > 1020 µg/mL

// field: MFC; key: CC(C)(CCS(=O)(=O)CC(O)C(O)CO)N(Cl)Cl (stereo not shown) [Compound 38-29] ; value = > 1020 µg/mL

// field: MFC; key: CC(C)(CCS(=O)(=O)CCOCCOCCO)N(Cl)Cl [Compound 38-85] ; value = > 1020 µg/mL

// field: MFC; key: CC(C)(CCS(=O)(=O)CCOCCOCCS(=O)(=O)O)N(Cl)Cl [Compound 38-81] ; value = > 2050 µg/mL

// field: MFC; key: COCCOCCOCC[N+](C)(C)CCC(C)(C)N(Cl)Cl [Compound 38-45, 4-methylbenzenesulfonate] ; value = > 2050 µg/mL
